Tested on: prostate cancer (5 cell lines)
test-protocol: CellTiter-Glo Viability Assay, prostate cancer
Format: cell-based
test-conditions: Homo sapiens, PC-3; PC3 cell line; inhibition of cancer cell proliferation; read-out: Prostate cancer EC50 PC3
// returns not met unless EC50 is strictly below 600 nM, in which case met

Take a look at these entries with their results.
smiles-structure: CN1CCN(c2cc(C(=O)Nc3cc4cc(-c5cnn(C)c5N)ccc4cn3)ccn2)CC1
classification: met

smiles-structure: CN1CCCn2cc(nn2)-c2nccc3[nH]c(nc23)-c2n[nH]c3ccc(cc23)-c2cncc(c2)C1
classification: not met

smiles-structure: Cc1cc2ncc(-c3ccc4cnc(NC(=O)c5ccnc(N6CCN(C)CC6)c5)cc4c3)cc2[nH]1
classification: not met

smiles-structure: CN1CCN(c2ccc(NC(=O)c3n[nH]c4ccc(-c5cncc(NC(=O)C6CC6)c5)cc34)cn2)CC1
classification: not met

Quick check: does "c1cncc(-c2ccc3[nH]nc(-c4cc5c(-c6cccnc6)cncc5[nH]4)c3c2)c1" have EC50 under 600 nM?
not met

Bench note: check whether "CN1CCC(Oc2ccc(NC(=O)c3n[nH]cc3/C=C/c3cccnc3)cn2)CC1" shows EC50 below 600 nM
not met

Please indicate whether the reported EC50 of "CN1CCN(c2cc(Nc3ncc4c(-c5ccc6ncccc6c5)c[nH]c4n3)ccn2)CC1" is strictly below 600 nM.
not met

# strict comparison: is reported EC50 < 600 nM? input = "[2H]c1c([2H])c([2H])c(/C=C/C(=O)Nc2cc3cc(-c4cncn4C)ccc3cn2)c([2H])c1[2H]"
met

Determine whether this molecule shows EC50 lower than 600 nM (ties excluded): "CN1CCC(Sc2ccc3cnc(NC(=O)c4ccnc(SC5CCN(C)CC5)c4)cc3c2)CC1"
not met

Is EC50 strictly under 600 nM for the entry "CC(C)CC(=O)Nc1cncc(-c2ccc3[nH]nc(-c4cc5c(N6CCCCC6)cncc5[nH]4)c3c2)c1" ?
not met

I'd appreciate it if you could check whether "O=C1CCc2cccc(c2)-c2cncc3[nH]c(nc23)-c2n[nH]c3ccc(cc23)-c2cncc(c2)N1" has EC50 smaller than 600 nM.
not met

Is EC50 strictly under 600 nM for the entry "CN1CCC2(CC1)CN(c1cc(C(=O)Nc3cc4cc(-c5cnn(C)c5)ccc4cn3)ccn1)C2" ?
met

Dear reviewer, please state whether "O=C(Nc1c[nH]nc1-c1nc2c(-c3cccc(F)c3)cncc2[nH]1)c1cccnc1" has EC50 strictly beneath 600 nM.
met

In plain terms, does "Cn1ncc(-c2ccc3cnc(NC(=O)c4cccc(CN5CCCC5)c4)cc3c2)c1CN1CCCCC1" come in under 600 nM for EC50?
not met

Record "Cc1ncc(C(=O)Nc2cc3nc(-c4cnc(C)n4C)ccc3cn2)s1" : is its EC50 strictly below 600 nM?
met

Does this molecule meet the criterion EC50 < 600 nM? "CS(=O)(=O)NCc1cc(F)cc(-c2nccc3[nH]c(-c4n[nH]c5ccc(-c6cncc(NC(=O)C7CCC7)c6)cc45)cc23)c1"
met

Threshold test, EC50 < 600 nM: "CN1CCC2(CC1)CN(c1cc(C(=O)Nc3cc4cc(-c5cnn(C)c5CO)ccc4cn3)ccn1)C2"
met

Consider the molecule "Cn1cc(-c2ccc3cnc(NC(=O)c4ccc5c(c4)CNCC5)cc3c2)cn1" . Is its EC50 strictly less than 600 nM?
met

Report whether reported EC50 is lower than 600 nM (strictly) for "CN1CCN(c2cc(C(=O)Nc3cc4cc(-c5nnc(N(C)C)s5)ccc4cn3)ccn2)CC1"
not met

Does the reported EC50 of the following molecule sit strictly below 600 nM? "Cc1n[nH]c2cc(F)c(-c3cncc(CN4CCNCC4)c3)cc12"
not met

Please indicate whether the reported EC50 of "CN1CCN(c2cc(C(=O)Nc3cc4cc(-c5cn(C)nn5)ccc4cn3)ccn2)CC1" is strictly below 600 nM.
met

Consider the molecule "c1cc2cc(c1)-c1cncc3[nH]c(nc13)-c1n[nH]c3ccc(cc13)-c1cncc(c1)CNC2" . Is its EC50 strictly less than 600 nM?
met
